Biological target: T1, recombinant cynomolgus monkey (Macaca fascicularis) TfR1 (cynomolgus monkey (Macaca fascicularis), UniProt Q5RDH6 87-760 (Pongo abelii entry), limits assumed)
T1 construct: Recombinant protein; also called cTfR1; cyTfR1
T1 chain: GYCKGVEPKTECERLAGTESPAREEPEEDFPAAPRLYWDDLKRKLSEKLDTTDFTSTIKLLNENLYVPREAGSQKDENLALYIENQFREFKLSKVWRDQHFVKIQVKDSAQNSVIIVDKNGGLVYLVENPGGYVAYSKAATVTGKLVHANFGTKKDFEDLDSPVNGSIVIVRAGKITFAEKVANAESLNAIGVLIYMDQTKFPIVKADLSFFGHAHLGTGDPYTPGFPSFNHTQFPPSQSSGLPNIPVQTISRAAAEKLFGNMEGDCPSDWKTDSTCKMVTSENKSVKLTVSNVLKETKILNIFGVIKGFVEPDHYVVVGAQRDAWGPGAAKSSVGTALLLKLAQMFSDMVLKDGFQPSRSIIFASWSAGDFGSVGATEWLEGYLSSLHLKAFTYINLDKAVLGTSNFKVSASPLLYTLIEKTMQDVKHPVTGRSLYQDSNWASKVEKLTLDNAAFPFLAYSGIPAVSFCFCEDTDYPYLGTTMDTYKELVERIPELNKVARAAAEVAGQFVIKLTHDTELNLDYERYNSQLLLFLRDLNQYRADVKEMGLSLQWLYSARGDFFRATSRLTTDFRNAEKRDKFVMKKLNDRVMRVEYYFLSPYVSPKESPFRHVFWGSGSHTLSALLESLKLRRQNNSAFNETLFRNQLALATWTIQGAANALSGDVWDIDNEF
Test: ELISA, recombinant TfR1 coated, unconjugated Fab (row 'Fab binding affinity ELISA')
Metric: EC50 (nM)
Return type: number; implicit unit nM.

## Task Name the reported EC50 value associated with the binder humanized anti-TfR Fab 3M12 VH4/Vκ2 (Fab, V domains shown, also called 3M12 (VH4/Vk2)) VH: QVQLQESGPGLVKPSQTLSLTCTVTGYSITSGYYWNWIRQPPGKGLEWIGYITFDGANNYNPSLKNRVSISRDTSKNQFSLKLSSVTAEDTATYYCTRSSYDYDVLDYWGQGTTVTVSS VL: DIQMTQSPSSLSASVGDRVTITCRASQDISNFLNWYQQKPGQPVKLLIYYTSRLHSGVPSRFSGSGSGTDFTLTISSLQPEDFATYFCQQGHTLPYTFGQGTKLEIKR
## Result 1.4

## Task Name the reported EC50 value associated with the binder humanized anti-TfR Fab 3M12 VH3/Vκ2 (Fab, V domains shown, also called 3M12 (VH3/Vk2)) VH: QVQLQESGPGLVKPSQTLSLTCSVTGYSITSGYYWNWIRQPPGKGLEWMGYITFDGANNYNPSLKNRVSISRDTSKNQFSLKLSSVTAEDTATYYCTRSSYDYDVLDYWGQGTTVTVSS VL: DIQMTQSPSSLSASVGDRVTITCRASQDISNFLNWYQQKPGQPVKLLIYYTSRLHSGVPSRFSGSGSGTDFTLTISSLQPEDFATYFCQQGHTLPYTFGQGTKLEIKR
## Result 9.9

Data provenance is patent US11844843.
